These data points were gathered from a protein production outcome set (Wang et al. 2014).

Assay comment: label from the status in PepcDB records
Attribute measured: protein production

Sequence entry	Reported value
MPTVAPLDIEGHVVSTHFLGDIPLFATAAGTIHRLDGGEKVTEAHDGLLTCIRDPYSATLLSGGEDGRVLRIGHDGSISEIANVPRKWVGVVAGGPQKAVAYGVGKSSFVRLSDCTVKEFKEERTVEAIAFAPKGLRIAVARYNGVTLHWVATAGDPVDLEWKGAHTGVTFSPDGKFLVTTMQENALHGWKMEATKGGMEARHMRMTGYPAKVKSISWSVKGKWLASSGAPAAIVWPFSGKDGPMGKAPEELGSRANIMATNVAFHPVEDVLAIGFIDGMILGVRLADGKEALLRRPGKGAITSMDWSATGNLLAFASEAGDCGIIDISALEHHHHHH	failed
MRQIPQNHIHTRSTPFWNKETAPAGIFERHLDKGTRPGVYPRLSVMQGAVKYLGYADEHCSEPEEIMVINAGEFGVFPPEKWHNIEVMTDDTYFNIDFFVAPEVLMEGATSRKVIHAGRE	failed

----------
Assay comment: label from the status in PepcDB records

Sequence entry	protein production
MKTKPQAPHVDFYEKSELLHFLDCASKHENPQAFMFFRLLAFTGLRRGEALALQWSDINFETNELTVNKTQAVGKRWRTIIQTPKTNTSYRTIVLDPDTAQWLHKWKMTQARQCFELGFNANDPSQLVFTNQQNKLMSPSTVNYFNWSICKKYGLRHIKIHAFRHTFCTLAFEAHAGINEVSKTLGHADLKITEQIYLHVTKKQKNETASKLARYMSELLEHHHHHH	not failed
DVAYELPAHTTRAQLSIDLVNNGDVEQQEKINSMRFIVFGSTPGGVRLDVNEHILLSTPETATDIDAQLLEVTSSNDILVVVIANEPQSLTSQLDGIANLLTLQEMIYDISSILNSDGQIISATGMPMTGVIRDISIAPDETKTVQMVIERAVARVDVFIEAIDGGAVTGYTAGSTSVTLHNFSHDSYFVMGNVGNGTRDNADSSKNYGKVKEDVSESNLLTHSWTAATTETWAYSSAPGAENRKLLCSFYTAERLFKSDYSDRLSISMANVLKGPSDVTGITGKVIESVTKVDGTGSPTAQPFTEIRRNNVYQVTARVGKIGIQILTISVEDWGERQDIDLDMDL	not failed
MDRNSKIVVGLVAVLSIAGLVLSLAGLLEGGEGTIAIIPVHGAIAYDTAGFSDGVDPDDIKELIAEANSDPSVKAIVLDINSPGGTPVASEELMDAINKSEKPVVSWISDSGTSGAYLAASASDRIVASPSAWVGSIGVILDLTDLSQMYRQMGINKYAIKAGEYKDMGADYRMITDEERQMLQSMVNEEYDYFIKTVAANRNLSVSYVKSLAEGRIFTGRQAVRNRLVDFTGGKDYAVEVAAKLAGVKNYNTITLEPPSGFLRVLSSMFSRLGFASGNTTEELQLH	failed
MGKGKSAIESQIRMLKLAKEIVEEVASSFPNLEEVYIFGSRARGDYLDTSDIDILFVFKGIKEMNVFDRMYMVSRFIRGNVDYIVLDEGEKDRVKDKVLFWKREKGFVLL	not failed
MAEELDDLTKFEAKGTSHHLPVGWLALFWGLIVFGAYYYWAYSPALGGWSQAKDLETGGASSGANLLWTIAFTAVPALVAIWMGLTQKKKAR	failed
MTKPILKKKERVDQLFSTDVKIIQNKEVFSYSIDSVLLSRFPKIPSRGLIVDLCSGNGAVGLFAATRTKAKIIEVELQERLADMAQRSIQLNDLTNQVSMIRDDLKNLLDHVPRSKVDLILCNPPYFKAAETSKKNLSEHYLLARHEIATNLEEICKISQQVLKTNGRLAMVHRPDRFLEIIDTFKKYKLAPKRLQFVYPKLGKDANMLLIETIKDGSPNGMKILPPLIVHKDNGDYTDNIHEIYFGKGHQAYMYVLKCADDSLYTGYTTDIKKRLATHNAGKGAKYTRARLPVELIYVEQFNHKNAAMSAEGKLKQKTRAQKLHYIEEHQHINLVSQF	failed
